# Test system: RXRa homodimer (NR concentration 180 nM)
# Protocol details: PBM binding z-score (relative to random genomic background probes); higher = stronger binding; sequences stand for … in GC…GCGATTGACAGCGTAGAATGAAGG
So basically: PBM binding z-score at 0.6 or higher? That is met. Lower than 0.6? That is not met.

{"Sequence input": "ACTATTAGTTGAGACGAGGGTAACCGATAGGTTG", "System tested": "RXRa homodimer (NR concentration 180 nM)", "Group": "not met"}
{"Sequence input": "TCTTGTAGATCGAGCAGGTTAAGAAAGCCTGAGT", "System tested": "RXRa homodimer (NR concentration 180 nM)", "Group": "not met"}
{"Sequence input": "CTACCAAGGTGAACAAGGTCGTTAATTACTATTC", "System tested": "RXRa homodimer (NR concentration 180 nM)", "Group": "met"}
{"Sequence input": "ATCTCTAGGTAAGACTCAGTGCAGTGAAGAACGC", "System tested": "RXRa homodimer (NR concentration 180 nM)", "Group": "not met"}
{"Sequence input": "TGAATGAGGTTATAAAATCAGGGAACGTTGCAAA", "System tested": "RXRa homodimer (NR concentration 180 nM)", "Group": "met"}
{"Sequence input": "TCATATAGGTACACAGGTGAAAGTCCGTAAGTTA", "System tested": "RXRa homodimer (NR concentration 180 nM)", "Group": "met"}
{"Sequence input": "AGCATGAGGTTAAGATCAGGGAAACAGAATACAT", "System tested": "RXRa homodimer (NR concentration 180 nM)", "Group": "met"}
{"Sequence input": "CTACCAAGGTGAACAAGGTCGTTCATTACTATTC", "System tested": "RXRa homodimer (NR concentration 180 nM)", "Group": "met"}
{"Sequence input": "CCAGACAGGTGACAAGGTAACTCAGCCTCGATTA", "System tested": "RXRa homodimer (NR concentration 180 nM)", "Group": "not met"}
{"Sequence input": "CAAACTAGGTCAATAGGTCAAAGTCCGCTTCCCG", "System tested": "RXRa homodimer (NR concentration 180 nM)", "Group": "met"}
{"Sequence input": "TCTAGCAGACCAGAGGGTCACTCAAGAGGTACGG", "System tested": "RXRa homodimer (NR concentration 180 nM)", "Group": "met"}
{"Sequence input": "TAGCCTAGGTCATTGGGCCAGTCTAGTACGCATC", "System tested": "RXRa homodimer (NR concentration 180 nM)", "Group": "met"}
{"Sequence input": "TCTATTAGTGGAAGGGCAACCGACGAGTCCGTTT", "System tested": "RXRa homodimer (NR concentration 180 nM)", "Group": "met"}
{"Sequence input": "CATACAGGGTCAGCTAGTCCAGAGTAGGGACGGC", "System tested": "RXRa homodimer (NR concentration 180 nM)", "Group": "met"}
{"Sequence input": "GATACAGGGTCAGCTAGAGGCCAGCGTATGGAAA", "System tested": "RXRa homodimer (NR concentration 180 nM)", "Group": "met"}
{"Sequence input": "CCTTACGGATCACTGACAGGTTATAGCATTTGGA", "System tested": "RXRa homodimer (NR concentration 180 nM)", "Group": "not met"}
{"Sequence input": "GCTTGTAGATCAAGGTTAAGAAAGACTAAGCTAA", "System tested": "RXRa homodimer (NR concentration 180 nM)", "Group": "met"}
{"Sequence input": "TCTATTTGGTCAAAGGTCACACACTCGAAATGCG", "System tested": "RXRa homodimer (NR concentration 180 nM)", "Group": "met"}
{"Sequence input": "TAATATAGGTAAAGGTGAAAGTCGAACGATATGA", "System tested": "RXRa homodimer (NR concentration 180 nM)", "Group": "met"}
{"Sequence input": "TGTCAAAGTTCAAAGCTAACGTAAGTATCCACAC", "System tested": "RXRa homodimer (NR concentration 180 nM)", "Group": "met"}
{"Sequence input": "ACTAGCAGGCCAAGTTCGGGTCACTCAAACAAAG", "System tested": "RXRa homodimer (NR concentration 180 nM)", "Group": "met"}
{"Sequence input": "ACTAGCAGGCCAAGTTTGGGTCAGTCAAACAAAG", "System tested": "RXRa homodimer (NR concentration 180 nM)", "Group": "not met"}
{"Sequence input": "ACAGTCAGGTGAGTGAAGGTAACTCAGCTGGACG", "System tested": "RXRa homodimer (NR concentration 180 nM)", "Group": "not met"}
{"Sequence input": "TCTGCTAGGTCCACGATGGTCAGCTAATCTGCTA", "System tested": "RXRa homodimer (NR concentration 180 nM)", "Group": "not met"}
{"Sequence input": "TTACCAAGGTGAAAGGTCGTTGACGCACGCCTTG", "System tested": "RXRa homodimer (NR concentration 180 nM)", "Group": "met"}
{"Sequence input": "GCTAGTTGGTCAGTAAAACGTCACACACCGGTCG", "System tested": "RXRa homodimer (NR concentration 180 nM)", "Group": "not met"}
